# Experiment summary: Triapine pharmacokinetics in plasma and erythrocytes
# Format: in vivo, human
# Experimental parameters: human, plasma, intravenous
Recorded endpoint: Cmax
Give the value; after it, write the unit.

Challenge: Name the recorded Cmax for NC(=S)NN=Cc1ncccc1N [Triapine] .
Response given: 650 ng/mL

----------
# Experiment summary: Triapine pharmacokinetics in plasma and erythrocytes
# Assay type: in vivo, human
# Experimental parameters: human, plasma, intravenous
Recorded endpoint: AUC(0-inf) (ng·h/mL)
Express your answer in ng·h/mL, writing the number without its unit.

Challenge: Which AUC(0-inf) reading was recorded for the compound NC(=S)NN=Cc1ncccc1N ?
Response given: 1210

----------
# Experiment summary: clinical
# Experimental parameters: human, plasma, intravenous
Counter-ions that a name gives are not always drawn.
Recorded endpoint: Tmax
Express your answer as a number followed by its unit.

Challenge: State the recorded Tmax for this entry: COc1cccc2c1C(=O)c1c(O)c3c(c(O)c1C2=O)C[C@@](O)(C(=O)CO)C[C@@H]3O[C@H]1C[C@H](N)[C@H](O)[C@H](C)O1 [doxorubicin, Doxorubicin hydrochloride]
Response given: 12 min
